experimental-system: UniProt:P05067
Sequence (P05067 whole entry): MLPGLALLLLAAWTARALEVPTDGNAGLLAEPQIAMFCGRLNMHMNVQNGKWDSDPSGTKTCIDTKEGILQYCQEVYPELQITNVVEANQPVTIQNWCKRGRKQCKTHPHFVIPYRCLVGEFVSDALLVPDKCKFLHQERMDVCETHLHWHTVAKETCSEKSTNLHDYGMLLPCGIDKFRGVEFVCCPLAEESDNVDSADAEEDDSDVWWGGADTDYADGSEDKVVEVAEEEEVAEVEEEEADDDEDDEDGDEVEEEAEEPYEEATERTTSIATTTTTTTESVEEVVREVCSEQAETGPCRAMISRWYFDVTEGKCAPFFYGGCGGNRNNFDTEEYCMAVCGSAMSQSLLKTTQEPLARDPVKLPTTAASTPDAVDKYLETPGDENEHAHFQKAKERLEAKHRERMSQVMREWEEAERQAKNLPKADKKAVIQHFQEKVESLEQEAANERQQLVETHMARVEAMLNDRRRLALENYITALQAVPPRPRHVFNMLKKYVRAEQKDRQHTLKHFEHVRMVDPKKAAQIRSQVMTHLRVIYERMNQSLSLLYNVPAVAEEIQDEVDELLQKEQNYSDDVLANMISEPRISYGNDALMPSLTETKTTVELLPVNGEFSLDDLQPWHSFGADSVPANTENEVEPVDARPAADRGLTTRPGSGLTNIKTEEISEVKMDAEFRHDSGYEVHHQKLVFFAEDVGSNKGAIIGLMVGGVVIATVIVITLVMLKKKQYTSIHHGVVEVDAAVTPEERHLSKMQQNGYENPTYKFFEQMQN
test: Inhibition of HFIP-pretreated self-induced amyloid beta (1 to 42) (unknown origin) aggregation at 25 uM measured after 24 hrs by ThT fluorescence assay relative to control
Documented inhibition across a set of compounds
Just the number in %, nothing appended.

# count of solved cases: 6
COc1cc2c(cc1OC)/C(=C\CCCCCN(C)Cc1ccccc1)OC2=O = 12.4
COc1ccccc1CN(C)CCC/C=C1\OC(=O)c2cc(OC)c(OC)cc21 = 15.1
COc1cc2c(cc1OC)/C(=C\CCCN1CCCCC1)OC2=O = 11.3
CCN(CCC/C=C1/OC(=O)c2cc(OC)c(OC)cc21)Cc1ccccc1N(C)C = 8.2
CCN(CCC/C=C1/OC(=O)c2cc(OC)c(OC)cc21)Cc1ccccc1 = 30.3
CCN(CCC/C=C1\OC(=O)c2cc(OC)c(OC)cc21)Cc1ccc(N(C)C)cc1 = 22

input: Query: inhibition; subject: CCN(CCCCC1OC(=O)c2cc(OC)c(OC)cc21)Cc1ccccc1 (stereo not given)
output: 15.6

input: Query: inhibition; subject: "CCN(CCC/C=C1\OC(=O)c2cc(OC)c(OC)cc21)Cc1ccccc1N(C)C"
output: 15.4

input: Query: inhibition; subject: "CCN(CC)CCC/C=C1/OC(=O)c2cc(OC)c(OC)cc21"
output: 15.1

Provenance of the data: ChEMBL document CHEMBL4616631
